biological target: Sigma intracellular receptor 2 (Homo sapiens); assay: GPCRScan assay: inhibition of Sigma 2
Sequence (Q5BJF2 whole entry): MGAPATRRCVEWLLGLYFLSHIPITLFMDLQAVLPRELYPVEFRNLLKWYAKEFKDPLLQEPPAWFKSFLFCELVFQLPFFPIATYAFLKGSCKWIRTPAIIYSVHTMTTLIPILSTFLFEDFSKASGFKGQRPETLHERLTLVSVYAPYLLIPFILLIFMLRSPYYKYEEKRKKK
Measured Endpoint: Ki (nM)
Give just the number in nM; leave the unit off.

Problem: Find the recorded Ki belonging to CO[C@@H](C)c1c(Nc2ccc([C@@H](N(C)C(=O)C3CCS(=O)(=O)CC3)C(F)(F)F)cc2)cnc2cc(Cl)nn12 and report it.
Solution: 890
